Measured pIC50 of individual entries
Tested on: BE(2)-C
Assay: Antiproliferative activity against human BE2C cells assessed as reduction in cell growth incubated for 96 hrs by MTT assay
Type: functional, cell-based
pIC50: −log10 of the molar value.

# compound, pIC50
measured = [
    ("NC(=O)C(c1ccccc1)c1c(-c2ccccc2)[nH]c2ccc(Cl)cc12 (stereo not drawn)", 4.85),
    ("CC1(C)COC(C(c2ccccc2F)c2c(-c3ccc4c(c3)CCCC4)[nH]c3ccccc23)=N1 (stereo not drawn)", 4.06),
    ("COc1ccc(-c2[nH]c3ccccc3c2C(C(N)=O)c2ccc(C)cc2)cc1 (stereo not drawn)", 5.33),
    ("COc1ccc(C(C2=NC(C)(C)CO2)c2c(-c3ccc(C)cc3)[nH]c3ccccc23)cc1 (stereo not drawn)", 5.03),
    ("Cc1ccc(C(C(N)=O)c2c(-c3ccc4ccccc4c3)[nH]c3ccccc23)cc1 (stereo not drawn)", 6.54),
    ("NC(=O)C(c1ccccc1Cl)c1c(-c2ccc3ccccc3c2)[nH]c2ccccc12 (stereo not drawn)", 6.02),
    ("NC(=O)C(c1ccc(Cl)cc1)c1c(-c2ccc3ccccc3c2)[nH]c2ccccc12 (stereo not drawn)", 6.10),
    ("COc1ccccc1C(C1=NC(C)(C)CO1)c1c(-c2ccc3c(c2)CCCC3)[nH]c2ccccc12 (stereo not drawn)", 4.70),
    ("CC1(C)COC(C(c2ccccc2Cl)c2c(-c3ccc4c(c3)CCCC4)[nH]c3ccccc23)=N1 (stereo not drawn)", 5.21),
    ("CC(C)c1ccc(C(C(N)=O)c2c(-c3ccccc3)[nH]c3ccccc23)cc1 (stereo not drawn)", 4.62),
    ("COc1ccccc1C(C(N)=O)c1c(-c2ccc3ccccc3c2)[nH]c2ccccc12 (stereo not drawn)", 6.55),
    ("COc1ccc(C(C(N)=O)c2c(-c3ccc4ccccc4c3)[nH]c3ccccc23)cc1OC (stereo not drawn)", 6.60),
    ("CC1(C)COC(C(c2ccc(Cl)cc2)c2c(-c3ccc4c(c3)CCCC4)[nH]c3ccccc23)=N1 (stereo not drawn)", 4.73),
]
